Would you kindly list GI50 Prostate DU-145 for each of these compounds?
# Tested on: DU-145
# method.description: Human cancer cell line inhibitory activity, Prostate DU-145
# Format: cell-based
One number for each entry, in mg/L.

>>> reported_measurement("O=C1N[C@H]2[C@H](OP(=O)([O-])[O-])[C@H](O)[C@@H](O)[C@H](O)[C@@H]2c2cc3c(c(O)c21)OCO3.[Mg+2] [Compound 4e, Magnesium Pancratistatin 4-O-Phosphate]")
0.22
>>> reported_measurement("O=C1N[C@H]2[C@H](OP(=O)([O-])[O-])[C@H](O)[C@@H](O)[C@H](O)[C@@H]2c2cc3c(c(O)c21)OCO3.[Na+].[Na+] [Compound 4a, Sodium Pancratistatin 4-O-phosphate]")
0.94

For every item in the list below, what is its measured GI50 Prostate DU-145?
1. O=C1N[C@H]2[C@H](OP(=O)([O-])[O-])[C@H](O)[C@@H](O)[C@H](O)[C@@H]2c2cc3c(c(O)c21)OCO3.[K+].[K+] [Compound 4d, Potassium Pancratistatin 4-O-phosphate]
2. O=C1N[C@H]2[C@H](OP(=O)([O-])[O-])[C@H](O)[C@@H](O)[C@H](O)[C@@H]2c2cc3c(c(O)c21)OCO3.[Ca+2] [Compound 4f, Calcium Pancratistatin 4-O-Phosphate]
3. O=C1N[C@H]2[C@H](OP(=O)([O-])[O-])[C@H](O)[C@@H](O)[C@H](O)[C@@H]2c2cc3c(c(O)c21)OCO3.[Zn+2] [Compound 4g, Zinc Pancratistatin 4-O-Phosphate]
4. C1COCCN1.O=C1N[C@H]2[C@H](OP(=O)(O)O)[C@H](O)[C@@H](O)[C@H](O)[C@@H]2c2cc3c(c(O)c21)OCO3
5. O=C1N[C@H]2[C@H](OP(=O)(O)O)[C@H](O)[C@@H](O)[C@H](O)[C@@H]2c2cc3c(c(O)c21)OCO3
6. O=C1N[C@H]2[C@H](O)[C@H](O)[C@@H](O)[C@H](O)[C@@H]2c2cc3c(c(OP(=O)([O-])[O-])c21)OCO3.[Na+].[Na+] [Compound 1b, sodium pancratistatin 7-O-phosphate, reference compound]
7. C1CNCCN1.O=C1N[C@H]2[C@H](OP(=O)(O)O)[C@H](O)[C@@H](O)[C@H](O)[C@@H]2c2cc3c(c(O)c21)OCO3
8. O=C1N[C@H]2[C@H](OP(=O)(O)O)[C@H](O)[C@@H](O)[C@H](O)[C@@H]2c2cc3c(c(O)c21)OCO3.c1c[nH]cn1 [Compound 4j, Imidazolium Pancratistatin 4-O-Phosphate]

Solution:
0.22
0.12
0.17
0.18
0.20
0.026
0.21
0.13

###

# System: NCI-H460
# method.description: Human cancer cell line inhibitory activity, Lung-NSC NCI-H460
# Type: cell-based
// returns 0 (no) unless GI50 Lung-NSC NCI-H460 is strictly below 0.4 µg/mL, in which case 1 (yes)

>>> class_assignment("O=C1N[C@@H]2C(=C[C@H](O)[C@@H](O)[C@H]2O)c2cc3c(c(O)c21)OCO3 [Compound 2a, narciclasine, reference compound]")
"1 (yes)"
>>> class_assignment("O=C1N[C@H]2[C@H](OP(=O)([O-])[O-])[C@H](O)[C@@H](O)[C@H](O)[C@@H]2c2cc3c(c(O)c21)OCO3.[Ca+2] [Compound 4f, Calcium Pancratistatin 4-O-Phosphate]")
"1 (yes)"
>>> class_assignment("C1CNCCN1.O=C1N[C@H]2[C@H](OP(=O)(O)O)[C@H](O)[C@@H](O)[C@H](O)[C@@H]2c2cc3c(c(O)c21)OCO3 [Compound 4h]")
"1 (yes)"
>>> class_assignment("O=C1N[C@H]2[C@H](OP(=O)([O-])[O-])[C@H](O)[C@@H](O)[C@H](O)[C@@H]2c2cc3c(c(O)c21)OCO3.[Zn+2] [Compound 4g, Zinc Pancratistatin 4-O-Phosphate]")
"0 (no)"
>>> class_assignment("C1COCCN1.O=C1N[C@H]2[C@H](OP(=O)(O)O)[C@H](O)[C@@H](O)[C@H](O)[C@@H]2c2cc3c(c(O)c21)OCO3 [Compound 4i]")
"0 (no)"
>>> class_assignment("O=C1N[C@H]2[C@H](OP(=O)([O-])[O-])[C@H](O)[C@@H](O)[C@H](O)[C@@H]2c2cc3c(c(O)c21)OCO3.[Na+].[Na+] [Compound 4a, Sodium Pancratistatin 4-O-phosphate]")
"1 (yes)"
>>> class_assignment("O=C1N[C@H]2[C@H](OP(=O)(O)O)[C@H](O)[C@@H](O)[C@H](O)[C@@H]2c2cc3c(c(O)c21)OCO3 [Compound 4b, Pancratistatin 4-O-phosphoric Acid]")
"0 (no)"
>>> class_assignment("O=C1N[C@H]2[C@H](OP(=O)([O-])[O-])[C@H](O)[C@@H](O)[C@H](O)[C@@H]2c2cc3c(c(O)c21)OCO3.[Mg+2] [Compound 4e, Magnesium Pancratistatin 4-O-Phosphate]")
"0 (no)"

Exercise: API: query returns whether the compound falls strictly under 0.4 µg/mL in GI50 Lung-NSC NCI-H460. Query: O=C1N[C@H]2[C@@H]3OP(=O)([O-])O[C@@H]3[C@@H](O)[C@H](O)[C@@H]2c2cc3c(c(O)c21)OCO3.[Na+] [Compound 5a]
Solution: 0 (no)

Exercise: API: query returns whether the compound falls strictly under 0.4 µg/mL in GI50 Lung-NSC NCI-H460. Query: C=C[C@H]1CN2CC[C@H]1C[C@H]2[C@H](O)c1ccnc2ccc(OC)cc12.O=C1N[C@H]2[C@H](OP(=O)(O)O)[C@H](O)[C@@H](O)[C@H](O)[C@@H]2c2cc3c(c(O)c21)OCO3 [Compound 4k, Quinium Pancratistatin 4-O-Phosphate]
Solution: 1 (yes)

###

# Test system: DU-145
# method.description: Human cancer cell line inhibitory activity, Prostate DU-145
# Type: cell-based
test.readout: GI50 Prostate DU-145 (µg/mL)
Answers are plain numbers, in µg/mL.

The following molecules have reported results that may help.
>>> reported_measurement("C=C[C@H]1CN2CC[C@H]1C[C@@H]2[C@@H](O)c1ccnc2ccc(OC)cc12.O=C1N[C@H]2[C@H](OP(=O)(O)O)[C@H](O)[C@@H](O)[C@H](O)[C@@H]2c2cc3c(c(O)c21)OCO3 [Compound 4l, Quinidium Pancratistatin 4-O-Phosphate]")
0.20
>>> reported_measurement("C=C[C@H]1CN2CC[C@H]1C[C@H]2[C@H](O)c1ccnc2ccc(OC)cc12.O=C1N[C@H]2[C@H](OP(=O)(O)O)[C@H](O)[C@@H](O)[C@H](O)[C@@H]2c2cc3c(c(O)c21)OCO3 [Compound 4k, Quinium Pancratistatin 4-O-Phosphate]")
0.15

For every item in the list below, what is its measured GI50 Prostate DU-145?
1. O=C1N[C@@H]2C(=C[C@H](O)[C@@H](O)[C@H]2O)c2cc3c(c(O)c21)OCO3 [Compound 2a, narciclasine, reference compound]
2. O=C1N[C@H]2[C@H](OP(=O)([O-])O)[C@H](O)[C@@H](O)[C@H](O)[C@@H]2c2cc3c(c(O)c21)OCO3.[Li+] [Compound 4c, Lithium Pancratistatin 4-O-phosphate]
3. O=C1N[C@H]2[C@@H]3OP(=O)([O-])O[C@@H]3[C@@H](O)[C@H](O)[C@@H]2c2cc3c(c(O)c21)OCO3.[Na+] [Compound 5a]

Solution:
[0.0032, 0.20, 2.3]

FYI, the data here is from patent US7541346B2.
